molecular target: Fuc(a1-2)[GalNAc(a1-3)]Gal(b1-4)Glc; assay: glycan array binding signal (z-score within array); higher = stronger binding; conditions: glycan notation: IUPAC condensed, linker removed
Shown is part of a subset that was picked to be rich in the strongest signals.
Entries and their glycan array binding signal (z-score) values follow.

# Binder, glycan array binding signal (z-score)
records = [
    ("Gal 9 (Canis lupus) (protein) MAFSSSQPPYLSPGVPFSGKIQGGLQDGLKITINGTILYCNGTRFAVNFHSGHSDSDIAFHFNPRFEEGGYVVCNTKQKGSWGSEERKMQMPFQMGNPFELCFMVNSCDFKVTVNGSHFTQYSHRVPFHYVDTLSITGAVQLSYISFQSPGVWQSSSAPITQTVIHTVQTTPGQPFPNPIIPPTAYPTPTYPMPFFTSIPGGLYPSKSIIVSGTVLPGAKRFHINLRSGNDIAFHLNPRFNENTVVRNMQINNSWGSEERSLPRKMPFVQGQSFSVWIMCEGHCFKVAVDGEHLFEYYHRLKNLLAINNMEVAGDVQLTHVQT", 2.88),
    ("SUN4 (Saccharomyces cerevisiae), P53616 (protein) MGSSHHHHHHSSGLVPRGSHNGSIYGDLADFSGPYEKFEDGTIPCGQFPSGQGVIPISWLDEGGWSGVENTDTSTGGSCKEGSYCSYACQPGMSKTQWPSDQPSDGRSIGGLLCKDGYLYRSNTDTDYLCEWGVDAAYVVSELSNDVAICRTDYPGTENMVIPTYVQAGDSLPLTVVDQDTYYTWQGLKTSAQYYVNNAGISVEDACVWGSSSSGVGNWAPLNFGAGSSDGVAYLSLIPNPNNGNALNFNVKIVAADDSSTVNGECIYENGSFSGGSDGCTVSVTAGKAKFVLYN", -0.935),
    ("PMA (Polygonatum multiflorum) (protein) LLTTTLFVFISSTRSLASTNVLYSDVGNAILNAKESLIYGDYRLDMQSDCNLVLYNKAAPYWASGTRWSWGGNCHLNLQSNGELVMYAYLGRTRIAIWRSGIISATGSYALVLKYDGALHVHGPSLWSTNATGPTTPTTASWSIDSTLWSGDVATIGPTIANGDYKLELLDTCNLTLSNTKTGQVLWYTNTTDWVHDCYVNIEGNGELKIKYLGGATLWSNKVGAGYTNNYVLGLRPDGKLDTYNAPIWSPTIGPGVHVAPAVYNASSNAVAAEGNGEKIAMVTGRAKNST", -0.249),
    ("DBA (Dolichos biflorus) (protein) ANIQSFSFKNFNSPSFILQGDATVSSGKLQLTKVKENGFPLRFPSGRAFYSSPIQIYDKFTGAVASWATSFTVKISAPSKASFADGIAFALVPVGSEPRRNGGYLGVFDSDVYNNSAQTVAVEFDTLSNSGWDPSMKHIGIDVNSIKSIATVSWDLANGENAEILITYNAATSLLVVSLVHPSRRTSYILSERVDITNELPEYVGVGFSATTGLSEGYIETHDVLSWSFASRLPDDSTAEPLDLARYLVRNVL", 0.577),
]
